System: PPARg:RXRa DBDmut IVT, anti-RXR (DBD mutation: RXRa K156A/R161A, NR concentration 270 nM, RXRa partner concentration 90 nM)
Experiment: PBM binding z-score (relative to random genomic background probes); higher = stronger binding; sequences stand for … in GC…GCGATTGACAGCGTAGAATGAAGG
Each record's PBM binding z-score is compared with low value: < 1; medium value: ≥ 1 and < 3; high value: ≥ 3 to give its class.

# residues, category
measured = [
    ("AGAATGAGGTTACCAAAGATCAGGGAGACGCTTG", "high value"),
    ("AGAATGAGGTTAAGATCAGGTAAACAGAATACAT", "medium value"),
    ("CGAACTAGGTCACAACAGGACAGTGAAGGATGAT", "high value"),
    ("TCTGGGAGGACACGAAGGTCAGAGCTTTCCAGAG", "medium value"),
    ("CTCGAAAGGCCGGTTGAGGTGAGTATACGGATAA", "low value"),
    ("GCGACTGGGGCATCAGCAGGTTACCATCACTTAA", "high value"),
    ("TCTATTAGTAGAAGGGCAACCGACGAGTCCGTTT", "medium value"),
    ("TGAATGAGGTTATACGATCAGGGAACGTTGCAAA", "low value"),
    ("CCTTACGGGTCACTGACAGGTTATCGCATTTGGA", "high value"),
    ("ACTAGCACGCCAAGTTTGGGTCACTCAAACAAAG", "low value"),
    ("TCAGACAGGTGCAGGTAACTCAGGTACGCAGTCG", "medium value"),
]

Source listed as the supplement of paper PMC6555819.
